Each entry below carries its reported ED50.
- Test system: LTB4 -induced bronchoconstriction
- protocol_details: Guinea Pig Bronchoconstriction In Vivo (LTB4-induced)
- Set-up: species or system guinea pig (Hartley strain)
- condition_details: Cavia porcellus, po, read-out: ID50 (mg/kg), p.o., LTB4-induced bronchoconstriction
quantity: ED50

molecule="CCCCCc1c(OCCCCCOc2ccccc2CCC(=O)O)ccc2c1OCCC2=O [Example 118]" result_value="> 10 mg/kg"
molecule="CCCc1c(OCCCCCCc2ccccc2CCC(=O)O)ccc2c1OCCC2=O [Example 37]" result_value="> 10 mg/kg"
molecule="O=C(O)CCc1ccccc1OCCCCCOc1ccc2c(c1Cc1ccccc1)OCCC2=O [Example 73]" result_value="> 10 mg/kg"
molecule="CCCc1c(OCCCCCOc2ccc(C(=O)CCCC(=O)O)cc2CCC(=O)O)ccc2c1OCCC2=O [Example 87]" result_value="> 10 mg/kg"
molecule="CCCc1c(OCCCCCCc2ccc(CCCCC(=O)O)cc2CCC(=O)O)ccc2c1OCCC2=O [Example 219]" result_value="> 10 mg/kg"
molecule="O=C(O)CCc1ccccc1OCCCCCOc1ccc2c(c1CCCc1ccccc1)OCCC2=O [Example 195]" result_value="5.8 mg/kg"
molecule="CCCc1c(OCCCCCOc2ccccc2CCC(=O)O)ccc2c1OCCC2=O [Example 4]" result_value="> 10 mg/kg"
molecule="CCCc1c(OCCCCCOc2ccccc2CCCC(=O)O)ccc2c1OCCC2=O [Example 145]" result_value="> 10 mg/kg"
molecule="CCCc1c(OCCCCCCc2cccc(OCCCCC(=O)O)c2CCC(=O)O)ccc2c1OCCC2=O [Example 126]" result_value="0.54 mg/kg"
molecule="CCCc1c(OCCCCCCc2ccc(OCCCC(=O)O)cc2CCC(=O)O)ccc2c1OCCC2=O [Example 54]" result_value="8.7 mg/kg"
